Measured values drawn from ChEMBL document CHEMBL4354871 for this set.

compounds and their reported IC50
# System: HT-29
# procedure_summary: Cytotoxicity in human HT-29 cells assessed as reduction in cell viability by Cell-titer-Lumi assay
# Type: functional, cell-based
Reply numerically in nM, unit not repeated.

[[record]]
compound = "CCCS(=O)(=O)Nc1ccc(F)c(C(=O)c2c[nH]c3ncc(-c4ccc(CNC(=O)CCCCNc5ccc6c(c5)C(=O)N(C5CCC(=O)NC5=O)C6=O)cc4)cc23)c1F (stereo not drawn)"
tested_on = "HT-29"
unit_abbreviation = "nM"
numeric_readout = 124

[[record]]
compound = "CCCS(=O)(=O)Nc1ccc(F)c(-n2cc(-c3cncnc3)c3nc(N(C)C4CCN(C(=O)CCOCCOCCOCCNc5cccc6c5C(=O)N(C5CCC(=O)N(C)C5=O)C6=O)CC4)ccc32)c1F (stereo not drawn)"
tested_on = "HT-29"
unit_abbreviation = "nM"
numeric_readout = 348


Qu. Supply IC50 value. Item: CCCS(=O)(=O)Nc1ccc(F)c(-n2cc(-c3cncnc3)c3nc(N(C)C4CCN(C(=O)CCOCCOCCOCCNc5cccc6c5C(=O)N(C5CCC(=O)NC5=O)C6=O)CC4)ccc32)c1F (stereo not drawn)
Ans. 51

* * *

# tested_on: Serine/threonine-protein kinase B-raf (Homo sapiens, UniProt P15056, V600E)
# Sequence (P15056 2-766 V600E limits assumed): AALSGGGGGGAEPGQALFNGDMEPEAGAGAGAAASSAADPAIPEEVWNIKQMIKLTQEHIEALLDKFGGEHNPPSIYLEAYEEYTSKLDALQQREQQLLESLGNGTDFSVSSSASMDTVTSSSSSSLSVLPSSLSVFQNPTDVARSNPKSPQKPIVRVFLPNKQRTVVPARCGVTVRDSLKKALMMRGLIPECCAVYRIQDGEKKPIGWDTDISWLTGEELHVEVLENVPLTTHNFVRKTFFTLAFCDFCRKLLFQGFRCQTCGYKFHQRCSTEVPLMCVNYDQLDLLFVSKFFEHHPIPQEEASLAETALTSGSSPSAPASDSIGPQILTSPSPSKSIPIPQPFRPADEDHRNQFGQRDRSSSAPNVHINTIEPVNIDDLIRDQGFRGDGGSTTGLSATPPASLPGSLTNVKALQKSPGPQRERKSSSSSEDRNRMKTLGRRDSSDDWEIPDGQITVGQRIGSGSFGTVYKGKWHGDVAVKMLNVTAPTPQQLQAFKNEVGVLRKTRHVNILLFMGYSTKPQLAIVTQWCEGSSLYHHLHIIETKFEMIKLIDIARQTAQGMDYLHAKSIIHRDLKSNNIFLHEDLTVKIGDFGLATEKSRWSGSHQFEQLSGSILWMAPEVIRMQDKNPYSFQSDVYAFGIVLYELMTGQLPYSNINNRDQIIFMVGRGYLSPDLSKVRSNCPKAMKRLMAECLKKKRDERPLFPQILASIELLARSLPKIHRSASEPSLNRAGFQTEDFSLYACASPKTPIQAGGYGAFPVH
# procedure_summary: Binding affinity to DNA-tagged BRAF (unknown origin) V600E mutant by KINOMEscan assay
parameter: pKd
Reminder that pKd means the negative base-10 logarithm of the concentration expressed in mol/L.

[[record]]
compound = "CCCS(=O)(=O)Nc1ccc(F)c(-n2cc(-c3cncnc3)c3nc(N(C)C4CCN(C(=O)CCOCCOCCOCCNc5cccc6c5C(=O)N(C5CCC(=O)NC5=O)C6=O)CC4)ccc32)c1F (stereo not given)"
parameter = "pKd"
numeric_readout = 8.70

[[record]]
compound = "CCCS(=O)(=O)Nc1ccc(F)c(-n2cc(-c3cncnc3)c3nc(N(C)C4CCN(CC)CC4)ccc32)c1F"
parameter = "pKd"
numeric_readout = 9.48

[[record]]
compound = "CCCS(=O)(=O)Nc1ccc(F)c(-n2cc(-c3cncnc3)c3nc(N(C)C4CCN(C(=O)CCOCCOCCOCCNc5cccc6c5C(=O)N(C5CCC(=O)N(C)C5=O)C6=O)CC4)ccc32)c1F (stereo not given)"
parameter = "pKd"
numeric_readout = 8.57


Qu. Tell me measured pKd for CCCS(=O)(=O)Nc1ccc(F)c(C(=O)c2c[nH]c3ncc(-c4ccc(CNC(=O)CCCCNc5ccc6c(c5)C(=O)N(C5CCC(=O)N(C)C5=O)C6=O)cc4)cc23)c1F (stereo not given) please.
Ans. 8.14

Qu. Return pKd (reported value) for this compound: CCCS(=O)(=O)Nc1ccc(F)c(C(=O)c2c[nH]c3ncc(-c4ccc(CNC(=O)CCCCNc5ccc6c(c5)C(=O)N(C5CCC(=O)NC5=O)C6=O)cc4)cc23)c1F (stereo not given)
Ans. 7.84

* * *

# Test system: Protein cereblon/Serine/threonine-protein kinase B-raf (Homo sapiens), P15056+Q96SW2 [V600E]
# procedure_summary: Protac activity at CRBN/BRAF V600E mutant in human A375 cells assessed as induction of BRAF V600E mutant degradation at 1 to 1000 nM incubated for 16 hrs by immunoblotting
# Format: cell-based
Active and inactive are the calls of the source. No cut-off for these calls is given here.
parameter: Activity

[[record]]
compound = "CCCS(=O)(=O)Nc1ccc(F)c(C(=O)c2c[nH]c3ncc(-c4ccc(CNC(=O)CCCCNc5ccc6c(c5)C(=O)N(C5CCC(=O)N(C)C5=O)C6=O)cc4)cc23)c1F (centres undefined)"
result = "inactive"

[[record]]
compound = "CCCS(=O)(=O)Nc1ccc(F)c(-n2cc(-c3cncnc3)c3nc(N(C)C4CCN(C(=O)CCOCCOCCOCCNc5cccc6c5C(=O)N(C5CCC(=O)N(C)C5=O)C6=O)CC4)ccc32)c1F (centres undefined)"
result = "inactive"

[[record]]
compound = "CCCS(=O)(=O)Nc1ccc(F)c(-n2cc(-c3cncnc3)c3nc(N(C)C4CCN(C(=O)CCOCCOCCOCCNc5cccc6c5C(=O)N(C5CCC(=O)NC5=O)C6=O)CC4)ccc32)c1F (centres undefined)"
result = "Dose-dependent effect"

[[record]]
compound = "CCCS(=O)(=O)Nc1ccc(F)c(C(=O)c2c[nH]c3ncc(-c4ccc(CNC(=O)CCCCNc5ccc6c(c5)C(=O)N(C5CCC(=O)NC5=O)C6=O)cc4)cc23)c1F (centres undefined)"
result = "Dose-dependent effect"

